Experiment: Half life in mouse liver microsomes at 0.8 uM by LC-MS/MS analysis
Assay type: ADME, microsome
Here the recorded half-life at 0.8 µM is given for each entry.
Reported property: half-life at 0.8 µM (min)

Compound: CCCC(C)N1CCC(N(Cc2ccccc2)C(=O)Nc2cc(F)cc(Cl)c2)CC1 (stereo not drawn)
Reported property: half-life at 0.8 µM
Readout unit: min
Qualifier symbol: ≤
Measurement: 6
--
Compound: CCCC(C)N1CCC(N(Cc2ccccc2)C(=O)Nc2cccc(F)c2)CC1 (stereo not drawn)
Reported property: half-life at 0.8 µM
Readout unit: min
Qualifier symbol: ≤
Measurement: 6
--
Compound: CCCCN1CCC(N(Cc2ccccc2)C(=O)Nc2cccc(F)c2)CC1
Reported property: half-life at 0.8 µM
Readout unit: min
Qualifier symbol: ≤
Measurement: 6
--
Compound: CCCC(C)N1CCC(N(Cc2ccccc2)C(=O)Nc2cccc(Cl)c2)CC1 (stereo not drawn)
Reported property: half-life at 0.8 µM
Readout unit: min
Qualifier symbol: ≤
Measurement: 6
--
Compound: CCCC(C)N1CCC(N(Cc2ccccc2)C(=O)Nc2ccc3c(c2)OCO3)CC1 (stereo not drawn)
Reported property: half-life at 0.8 µM
Readout unit: min
Qualifier symbol: ≤
Measurement: 6
--
Compound: CCCC(C)N1CCC(N(Cc2ccccc2)C(=O)Nc2ccc(Cl)c([N+](=O)[O-])c2)CC1 (stereo not drawn)
Reported property: half-life at 0.8 µM
Readout unit: min
Qualifier symbol: =
Measurement: 22.7
--
Compound: CCCC(C)N1CCC(N(Cc2ccccc2)C(=O)Nc2cc(C(F)(F)F)ccc2F)CC1 (stereo not drawn)
Reported property: half-life at 0.8 µM
Readout unit: min
Qualifier symbol: =
Measurement: 48.5
--
Compound: CCCCN1CCC(N(Cc2ccccc2)C(=O)Nc2ccc(C)c(Cl)c2)CC1
Reported property: half-life at 0.8 µM
Readout unit: min
Qualifier symbol: =
Measurement: 17.2
--
Compound: CCCC(C)N1CCC(N(Cc2ccccc2)C(=O)Nc2ccc3ncsc3c2)CC1 (stereo not drawn)
Reported property: half-life at 0.8 µM
Readout unit: min
Qualifier symbol: =
Measurement: 14.3
--
Compound: CCCC(C)N1CCC(N(Cc2ccccc2)C(=O)Nc2ccc(I)cc2)CC1 (stereo not drawn)
Reported property: half-life at 0.8 µM
Readout unit: min
Qualifier symbol: =
Measurement: 29.9
--
Compound: CCCC(C)N1CCC(N(Cc2ccccc2)C(=O)Nc2ccc(C#N)c(C(F)(F)F)c2)CC1 (stereo not drawn)
Reported property: half-life at 0.8 µM
Readout unit: min
Qualifier symbol: =
Measurement: 55.9
--
Compound: CCCC(C)N1CCC(N(Cc2ccccc2)C(=O)Nc2ccc(Cl)cc2)CC1 (stereo not drawn)
Reported property: half-life at 0.8 µM
Readout unit: min
Qualifier symbol: =
Measurement: 22.1
--
Compound: CCCN1CCC(N(Cc2cc(F)cc(C(F)(F)F)c2)C(=O)Nc2cccc(C(F)(F)F)c2)CC1
Reported property: half-life at 0.8 µM
Readout unit: min
Qualifier symbol: =
Measurement: 16.3
--
Compound: CCCCN1CCC(N(Cc2ccccc2)C(=O)Nc2ccc(F)c(C(F)(F)F)c2)CC1
Reported property: half-life at 0.8 µM
Readout unit: min
Qualifier symbol: =
Measurement: 116
--
Compound: CCCCN1CCC(N(Cc2ccccc2)C(=O)Nc2cccc(C#N)c2)CC1
Reported property: half-life at 0.8 µM
Readout unit: min
Qualifier symbol: =
Measurement: 9.3
--
Compound: CCCN1CCC(N(Cc2ccccc2)C(=O)Nc2cccc(C(F)(F)F)c2)CC1
Reported property: half-life at 0.8 µM
Readout unit: min
Qualifier symbol: =
Measurement: 10.2
--
Compound: CCCN1CCC(N(Cc2ccc3c(c2)OCO3)C(=O)Nc2cccc(C(F)(F)F)c2)CC1
Reported property: half-life at 0.8 µM
Readout unit: min
Qualifier symbol: <
Measurement: 6
--
Compound: CCCCN1CCC(N(Cc2ccccc2)C(=O)Nc2cc(F)cc(F)c2)CC1
Reported property: half-life at 0.8 µM
Readout unit: min
Qualifier symbol: ≤
Measurement: 6
--
Compound: CCCC(C)N1CCC(N(Cc2ccccc2)C(=O)Nc2ccc(F)c(F)c2)CC1 (stereo not drawn)
Reported property: half-life at 0.8 µM
Readout unit: min
Qualifier symbol: =
Measurement: 11.3
--
Compound: O=C(Nc1cccc(C(F)(F)F)c1)NC1CCN(Cc2ccccc2)CC1
Reported property: half-life at 0.8 µM
Readout unit: min
Qualifier symbol: =
Measurement: 35.5
--
Compound: CC(C)(C)N1CCC(N(Cc2ccc3c(c2)OCO3)C(=O)Nc2cccc(C(F)(F)F)c2)CC1
Reported property: half-life at 0.8 µM
Readout unit: min
Qualifier symbol: =
Measurement: 7.44
--
Compound: CCCCN1CCC(N(Cc2ccc3c(c2)OCO3)C(=O)Nc2cccc(C(F)(F)F)c2)CC1
Reported property: half-life at 0.8 µM
Readout unit: min
Qualifier symbol: =
Measurement: 14.7
--
Compound: CCCCN1CCC(N(Cc2ccccc2)C(=O)Nc2cccc(C(F)(F)F)c2F)CC1
Reported property: half-life at 0.8 µM
Readout unit: min
Qualifier symbol: ≤
Measurement: 6
--
Compound: CCCC(C)N1CCC(N(Cc2ccccc2)C(=O)Nc2ccc(C(F)(F)F)nc2C)CC1 (stereo not drawn)
Reported property: half-life at 0.8 µM
Readout unit: min
Qualifier symbol: >
Measurement: 240
--
Compound: CCCCN1CCC(N(Cc2ccccc2)C(=O)Nc2cccc(Cl)c2)CC1
Reported property: half-life at 0.8 µM
Readout unit: min
Qualifier symbol: ≤
Measurement: 6
--
Compound: CCCC(C)N1CCC(N(Cc2ccccc2)C(=O)Nc2ccc3ccccc3c2)CC1 (stereo not drawn)
Reported property: half-life at 0.8 µM
Readout unit: min
Qualifier symbol: ≤
Measurement: 6
